# assaySystem: CmoB R315A mutant (Escherichia coli, UniProt P76291, R315A)
# Construct: vector LIC-pET30a) (cleaved yes)
# Sequence (P76291 whole entry R315A): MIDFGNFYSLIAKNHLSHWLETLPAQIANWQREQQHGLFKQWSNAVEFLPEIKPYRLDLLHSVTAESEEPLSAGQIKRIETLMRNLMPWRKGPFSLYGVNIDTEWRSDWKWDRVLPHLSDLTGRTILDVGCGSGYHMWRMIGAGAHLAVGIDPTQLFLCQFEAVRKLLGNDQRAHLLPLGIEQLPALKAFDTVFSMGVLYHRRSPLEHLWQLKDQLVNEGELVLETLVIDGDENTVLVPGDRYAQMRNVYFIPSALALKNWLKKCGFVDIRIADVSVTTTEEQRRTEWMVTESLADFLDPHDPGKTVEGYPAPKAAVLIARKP
# experimentalDetails: Isothermal titration calorimetry, R315A mutant CmoB
parameterMeasured: pKd
Would you please state pKd, meaning minus log10 of the concentration in mol/L, as a bare number?

Need pKd of Nc1ncnc2c1ncn2[C@@H]1O[C@H](C[S+](CC[C@H](N)C(=O)[O-])CC(=O)O)[C@@H](O)[C@H]1O (stereo partly drawn) [Cx-SAM, carboxy-S-adenosine-L-methionine] , thanks.
5.68

From here, focus on the item given below.
# lookup: pKd of C[S+](CC[C@H](N)C(=O)[O-])C[C@H]1O[C@@H](n2cnc3c(N)ncnc32)[C@H](O)[C@@H]1O (some centres unmarked) [SAM, reference compound]
3.85

====

# assaySystem: CmoB K91A mutant (Escherichia coli, UniProt P76291, K91A)
# Construct: vector LIC-pET30a) (cleaved yes); made in house; host or cells: Escherichia coli BL21 (DE3)
# Sequence (P76291 whole entry K91A): as the sequence (P76291 whole entry R315A) above, with K91A, A315R counted along it
# experimentalDetails: Isothermal titration calorimetry, K91A mutant CmoB
# Type: binding
# testParameters: K1 (macroscopic binding constant), tetrameric K91A, 1 ligand bound
# Experimental: CmoB was extensively dialyzed for 24 h against binding buffer (20-mM HEPES, pH 7.5) using a dialysis cassette with 10-kDa MWCO (Pierce). Lyophilized Cx-SAM was dissolved in the binding buffer at a final concentration of 1.3 mM. […] Titration data were analyzed using a single-site model in Origin (version X) and Igor Pro 5/6. […] The titration curve was analyzed using macroscopic binding constants and enthalpies describing binding of n-molecules of Cx-SAM to tetrameric mutant CmoB. […]
parameterMeasured: pKd
Note on units: pKd is unitless, being -log10 of a concentration expressed in mol/L.

Form field: pKd recorded for Nc1ncnc2c1ncn2[C@@H]1O[C@H](C[S+](CC[C@H](N)C(=O)[O-])CC(=O)O)[C@@H](O)[C@H]1O (stereo partly shown) with CmoB K91A mutant (Escherichia coli, UniProt P76291, K91A) (enter value)
5.15

====

# assaySystem: wild-type CmoB (Escherichia coli, UniProt P76291)
# Construct: vector LIC-pET30a) (cleaved yes); made in house; host or cells: Escherichia coli BL21 (DE3)
# Sequence (P76291 whole entry): as the sequence (P76291 whole entry R315A) above, with A315R counted along it
# experimentalDetails: Isothermal titration calorimetry, wild-type CmoB
# Type: binding
# testParameters: ITC, 15°C, read-out: Kd
parameterMeasured: pKd
Please report pKd as the negative decimal logarithm of the molar concentration, giving only the number.

Test system wild-type CmoB (Escherichia coli, UniProt P76291); read-out pKd; what value for Nc1ncnc2c1ncn2[C@@H]1O[C@H](C[S+](CC[C@H](N)C(=O)[O-])CC(=O)O)[C@@H](O)[C@H]1O (stereo partly shown) ?
6.40
